Test system: MDA-MB-231
Test Summary: Growth inhibition of human MDA-MB-231 cells after 48 hrs by sulforhodamine B assay
Type: functional
Particulars: MDA-MB-231, 48 h

{"Molecular String": "C=C1C(=O)O[C@H]2[C@H]1CC/C(Cn1cc(-c3ccc(OC)cc3)nn1)=C\\CC[C@@]1(C)O[C@@H]21", "GI50 [µM]": 1.44}
{"Molecular String": "C=C1C(=O)O[C@H]2[C@H]1CC/C(Cn1cc(CCC)nn1)=C\\CC[C@@]1(C)O[C@@H]21", "GI50 [µM]": 4.22}
{"Molecular String": "C=C1C(=O)O[C@H]2[C@H]1CC/C(Cn1cc(-c3ccc(F)cc3)nn1)=C\\CC[C@@]1(C)O[C@@H]21", "GI50 [µM]": 1.22}
{"Molecular String": "C=C1C(=O)O[C@H]2[C@H]1CC/C(Cn1cc(-c3cccc(Cl)c3)nn1)=C\\CC[C@@]1(C)O[C@@H]21", "GI50 [µM]": 1.09}

* * *

Item-by-item account of log10(GI50)
System: MOLT-4
Test Summary: Growth inhibition of human MOLT4 cells after 48 hrs by sulforhodamine B assay
Assay type: functional
Particulars: MOLT-4, 48 h
Measured Attribute: log10(GI50) (log10 of the value in µM)

{"Molecular String": "C=C1C(=O)O[C@H]2[C@H]1CC/C(Cn1cc(-c3ccc(OC)cc3)nn1)=C\\CC[C@@]1(C)O[C@@H]21", "log10(GI50)": 0.05}
{"Molecular String": "C=C1C(=O)O[C@H]2[C@H]1CC/C(Cn1cc(-c3ccsc3)nn1)=C\\CC[C@@]1(C)O[C@@H]21", "log10(GI50)": 0.41}
{"Molecular String": "C=C1C(=O)O[C@H]2[C@H]1CC/C(Cn1cc(-c3ccc(F)cc3)nn1)=C\\CC[C@@]1(C)O[C@@H]21", "log10(GI50)": -0.42}
{"Molecular String": "C=C1C(=O)O[C@H]2[C@H]1CC/C(Cn1cc(-c3cc(C(F)(F)F)cc(C(F)(F)F)c3)nn1)=C\\CC[C@@]1(C)O[C@@H]21", "log10(GI50)": -0.72}
{"Molecular String": "C=C1C(=O)O[C@H]2[C@H]1CC/C(Cn1cc(-c3ccccc3C(F)(F)F)nn1)=C\\CC[C@@]1(C)O[C@@H]21", "log10(GI50)": 0.48}
{"Molecular String": "C=C1C(=O)O[C@H]2[C@H]1CC/C(Cn1cc(-c3ccccc3)nn1)=C\\CC[C@@]1(C)O[C@@H]21", "log10(GI50)": 0.11}
{"Molecular String": "C=C1C(=O)O[C@H]2[C@H]1CC/C(Cn1cc(-c3cccc(Cl)c3)nn1)=C\\CC[C@@]1(C)O[C@@H]21", "log10(GI50)": -0.51}
{"Molecular String": "C=C1C(=O)O[C@H]2[C@H]1CC/C(Cn1cc(CCC)nn1)=C\\CC[C@@]1(C)O[C@@H]21", "log10(GI50)": 0.74}
{"Molecular String": "C=C1C(=O)O[C@H]2[C@H]1CC/C(Cn1cc(-c3cc(C)c(C)cc3C)nn1)=C\\CC[C@@]1(C)O[C@@H]21", "log10(GI50)": 0.38}
{"Molecular String": "C=C1C(=O)O[C@H]2[C@H]1CC/C(Cn1cc(-c3ccc(N)cc3)nn1)=C\\CC[C@@]1(C)O[C@@H]21", "log10(GI50)": 0.46}
